System: intramacrophagic iRFP-L. infantum amastigotes from murine spleens
EXPERIMENT_SUMMARY: Ex vivo intramacrophagic amastigote viability assay (iRFP fluorescence)
Assay type: cell-based, Leishmania infantum
CONDITION_LABEL: Leishmania infantum; ex vivo murine splenic explants, 72 h; read-out: Intracellular Amastigotes EC50
For each record, write down the corresponding pEC50.
In plain terms, pEC50 is the concentration in mol/L turned into minus its base-10 logarithm.

In: What value of pEC50 has been reported for the following compound? Cc1ccc(S(=O)(=O)N2Cc3c(nc4ncc(Br)cc4c3-c3ccccc3)-c3ccccc32)cc1 [Compound 15b]
Out: 5.21

In: May I ask what pEC50 has been recorded for Cc1ccc(S(=O)(=O)N2Cc3c(nc4ncccc4c3-c3ccccc3)-c3ccccc32)cc1 [Compound 15a] ?
Out: 4.17

In: Field request: pEC50 | item: O=c1oc2ccccc2c2nc3ncccc3c(-c3ccccc3)c12 [Compound 13a]
Out: 4.98

In: Any idea what pEC50 was measured for O=c1oc2ccccc2c2nc3ncc(Br)cc3c(-c3ccccc3)c12 [Compound 13b] ?
Out: 5.12

In: Find the recorded pEC50 belonging to O=C1Oc2ccccc2C2Nc3ccc(Br)nc3[C@@H](c3ccccc3)C12 (stereo partly drawn) [Compound 6b] and report it.
Out: 4.89

In: Look up pEC50 for this compound: COc1ccc2nc3c(c(-c4ccccc4)c2n1)c(=O)oc1ccccc13 [Compound 7c]
Out: 4.43

In: // query pEC50 value for entry Cc1ccc(S(=O)(=O)N2CC3C(Nc4ncccc4C3c3ccccc3)c3ccccc32)cc1 (stereo not drawn) [Compound 14a]
Out: 5.03

In: Name the reported pEC50 value associated with the compound COc1ccc2c(n1)[C@@H](c1ccccc1)C1CN(S(=O)(=O)c3ccc(C)cc3)c3ccccc3C1N2 (stereo partly drawn) [Compound 8c]
Out: 5.31

In: Requested field: pEC50. Item: Fc1ccc2c(c1)C1Nc3ncccc3[C@@H](c3ccccc3)C1CO2 (stereo partly drawn) [Compound 10b]
Out: 5.12

In: Tell me the measured pEC50 of c1ccc(-c2c3c(nc4ncccc24)-c2ccccc2OC3)cc1 [Compound 11a] , please.
Out: 5.11

###

Consider the following compounds; for each one, report its CC50 at 72 h.
EXPERIMENT_SUMMARY: Cytotoxicity in uninfected murine splenic cells (alamarBlue)
Assay type: cell-based, mouse
CONDITION_LABEL: mouse; uninfected splenic cells, 72 h, alamarBlue; read-out: Mouse Splenic Macrophages CC50
Supply the numeric figure in µM, leaving out any unit text.

In: What CC50 at 72 h value was documented for this compound, "COc1ccc2nc3c(c(-c4ccccc4)c2n1)c(=O)oc1ccccc13" ?
Out: 97.7

In: Tell me the measured CC50 at 72 h of Cc1ccc(S(=O)(=O)N2CC3C(Nc4cccnc4[C@H]3c3ccccc3)c3ccccc32)cc1 (some centres unmarked) , please.
Out: 45

In: Consider the compound Cc1ccc(S(=O)(=O)N2Cc3c(nc4ncc(Br)cc4c3-c3ccccc3)-c3ccccc32)cc1 [Compound 15b] and give its measured CC50 at 72 h.
Out: 24.6

In: For the compound O=c1oc2ccccc2c2nc3ncccc3c(-c3ccccc3)c12 [Compound 13a] , what CC50 at 72 h is on record?
Out: 34.6

In: Consider the compound shown here: Fc1ccc2c(c1)C1Nc3ncccc3[C@@H](c3ccccc3)C1CO2 (some centres unmarked) [Compound 10b] What is its recorded CC50 at 72 h?
Out: 50.7

In: CC50 at 72 h lookup needed for Cc1ccc(S(=O)(=O)N2Cc3c(nc4ncccc4c3-c3ccccc3)-c3ccccc32)cc1 [Compound 15a] , thanks.
Out: 8.78

FYI, the data here is from paper PMC10780244.
